Origin of measurements: patent US10464925B2

Parameter IC50: see the listing below.
# Tested on: MV4; 11
# assay.name: Cell viability, ATPlite 48 hours, MV4-11
# Format: cell-based
# test.parameters: Homo sapiens, 11 cells

{"columns": ["compound", "IC50"],
 "data": [
  ["COc1cc(C(=O)NCCCCNC(=O)COc2cccc3c2C(=O)N(C2CCC(=O)NC2=O)C3=O)ccc1Nc1ncc2c(n1)N(C)c1ccccc1C(=O)N2C (stereo not drawn) [dBET11]", "3.38 nM"],
  ["CC[C@@H]1C(=O)N(C)c2cnc(Nc3ccc(C(=O)NCCCOCCOCCOCCCNC(=O)COc4cccc5c4C(=O)N(C4CCC(=O)NC4=O)C5=O)cc3OC)nc2N1C1CCCC1 (stereo partly drawn) [dBET10]", "28 nM"],
  ["Cc1sc2c(c1C)C(c1ccc(Cl)cc1)=N[C@@H](CC(=O)NCCCOCCOCCOCCCNC(=O)COc1cccc3c1C(=O)N(C1CCC(=O)NC1=O)C3=O)c1nnc(C)n1-2 (stereo partly drawn) [dBET9]", "28 nM"]
]}
